The following compounds are listed with their measured pest or weed control at 500 g/ha values.
Test system: ryegrass, Italian (Italian ryegrass, Lolium multiflorum)
Test: Test A preemergence
Type: in vivo
Details: Lolium multiflorum, pre-emergence, 240 h, 500 g ai/ha, preemergence; 0 to 100 scale where 0 is no effect and 100 is complete control; read-out: Ryegrass, Italian plant response rating
Returns: string containing the number followed by the unit.

Req: What value of pest or weed control at 500 g/ha on ryegrass, Italian (Italian ryegrass, Lolium multiflorum) does O=C1NC[C@H](c2ccc(F)c(OC(F)(F)C(F)F)c2)[C@H]1C(=O)Nc1ccc(F)cc1F (racemic) have?
Resp: 50%

Req: What value of pest or weed control at 500 g/ha on ryegrass, Italian (Italian ryegrass, Lolium multiflorum) does CN1CC(c2cccc(O)c2)C(C(=O)Nc2cccc(F)c2F)C1=O (centres unmarked) have?
Resp: 0%

Req: What value of pest or weed control at 500 g/ha on ryegrass, Italian (Italian ryegrass, Lolium multiflorum) does `CN1C[C@H](c2ccc(C#N)cc2)[C@@H](C(=O)Nc2cccc(F)c2F)C1=O` have?
Resp: 70%

Req: What value of pest or weed control at 500 g/ha on ryegrass, Italian (Italian ryegrass, Lolium multiflorum) does `O=C1NC[C@H](c2cc(C(F)F)cs2)[C@H]1C(=O)Nc1ccccc1F` have?
Resp: 20%

Req: What value of pest or weed control at 500 g/ha on ryegrass, Italian (Italian ryegrass, Lolium multiflorum) does `COc1cc(C(F)(F)F)ccc1[C@H]1CN(C)C(=O)[C@@H]1C(=O)Nc1cccc(F)c1C` have?
Resp: 70%

Req: What value of pest or weed control at 500 g/ha on ryegrass, Italian (Italian ryegrass, Lolium multiflorum) does `CC(C)Oc1ccc([C@H]2CNC(=O)[C@@H]2C(=O)Nc2cccc(F)c2F)cc1` have?
Resp: 30%

Req: What value of pest or weed control at 500 g/ha on ryegrass, Italian (Italian ryegrass, Lolium multiflorum) does `Cc1ccc([C@H]2CCN(C)C(=O)[C@@H]2C(=O)Nc2cccc(F)c2F)cc1` have?
Resp: 50%

Req: What value of pest or weed control at 500 g/ha on ryegrass, Italian (Italian ryegrass, Lolium multiflorum) does `Cc1c(F)cccc1NC(=O)[C@H]1C(=O)N(C)C[C@@H]1c1ccc2c(c1)OC(F)(F)O2` have?
Resp: 90%

Req: What value of pest or weed control at 500 g/ha on ryegrass, Italian (Italian ryegrass, Lolium multiflorum) does `CCc1ccc([C@H]2CNC(=O)[C@@H]2C(=O)Nc2cccc(F)c2C)cc1` have?
Resp: 70%

Req: What value of pest or weed control at 500 g/ha on ryegrass, Italian (Italian ryegrass, Lolium multiflorum) does `CCc1ccc([C@H]2CNC(=O)[C@@H]2C(=O)Nc2ccccc2SC)cc1` have?
Resp: 20%

Req: What value of pest or weed control at 500 g/ha on ryegrass, Italian (Italian ryegrass, Lolium multiflorum) does `CSc1ccccc1NC(=O)[C@H]1C(=O)N(C)C[C@@H]1c1cccc(C)c1` have?
Resp: 60%

Req: What value of pest or weed control at 500 g/ha on ryegrass, Italian (Italian ryegrass, Lolium multiflorum) does `CSc1ccccc1NC(=O)[C@H]1C(=O)N(C)C[C@@H]1c1cccc(C(F)(F)F)c1` have?
Resp: 100%

Req: What value of pest or weed control at 500 g/ha on ryegrass, Italian (Italian ryegrass, Lolium multiflorum) does CN1CC(c2cccc(OCC=C(Cl)Cl)c2)C(C(=O)Nc2cccc(F)c2F)C1=O (centres unmarked) have?
Resp: 0%

Req: What value of pest or weed control at 500 g/ha on ryegrass, Italian (Italian ryegrass, Lolium multiflorum) does `CN1C[C@H](c2ccc(C(F)(F)F)cc2)[C@@H](C(=O)Nc2cccc(Cl)c2F)C1=O` have?
Resp: 50%
